Tested on: MS2 coat protein
assay name: apparent KD of MS2 coat protein; designed switch direction (-1 OFF switch, 1 ON switch): -1; higher = weaker reporter binding
recorded conditions: Eterna round: R95; input ligand: microRNA oligo, concentration not stated
Criterion: apparent KD of MS2 coat protein meeting or surpassing 30 nM. Met: MET. Not met: NOT MET.

sequence content	category label
AGUAGUAGUAUCCGAUCGUACAUGAGGAUCACCCAUGUAGCUAGACGUGCACGCGAUGCUCGUCAGACUACCAGAUG [salish99_TOv1_r3_036] (puzzle: Sensor v3, turn-off variant 1)	MET
GAGAAGGUAGGAUAUACGAAGAAAAAGGGUAGAAGAAGAACACAUGAGGAUCACCCAUGUAGAAGGACCAAGAG [Mat - Exclusion 2 - Mod of my Tesla design - D17] (puzzle: Exclusion 2)	NOT MET
CAGUACUGCAGGCUUUGGGACAUGAGGAUCACCCAUGUUCGUCUUAUUGAUCUAGGUACGCUGACGUACCUAGAUCU [JL-sv1-2.14 Brourd mod] (puzzle: Sensor v3, turn-off variant 1)	NOT MET
CCAGCGUAUGUGAGGAUAUGCUGGUCCUUGGAUCAGCAGAAGGCACAUGAGGAUCACCCAUGUGAGAACGUUGG [JL bmx4 3.38] (puzzle: Brourd's mod of Exclusion 4)	NOT MET
CUCAUGUCAGGAUAUUAAGUCCGUAGCCUAUGGCUGCAACAUGAGAAGGGACAUGAGGAUCACCCAUGUCGGGA [Edceleon] (puzzle: Exclusion 4)	MET
AAGAAACAUGAGGAUCACCCAUGUGAGGAUAUGAGAAAGAAAAGAAAAGAAAGAAGAUUCAGAAGGCACAAAGG [salish99-ex1_r3_035] (puzzle: Exclusion 1)	MET
AUCAUGUCAGGAUAUAUGACAUGGCUCUUCGGAGCAAGAUCAUAGAAGGGACAUGAGGAUCACCCAUGUAGAUC [Ex4-3: 23] (puzzle: Exclusion 4)	MET
AGUCCUGAUGUUAGGAUAUGCAACUAGCCAUUGUAGCAGAAGGAACAUGAGGAUCACCCAUGUACAAAGACCCA [Xeonbera] (puzzle: Brourd's mod of Exclusion 4)	NOT MET
GGAAAGUGAGGAUAUGGUAAAGUAAGUAUGUAGUAAGUAAUCCAGAAGGCACAUGAGGAUCACCCAUGUAAAUG [Mat - Exclusion 4 - D100] (puzzle: Exclusion 4)	NOT MET
GUGUAGCAAGGAUAUACAUGAGGAUCACCCAUGUGAAUAAGAUAGAAUAAGAUAAAGUGUAGAAGGUGCAGUGU [Excluse me!!! 8 - Jieux - Exclusion 3] (puzzle: Exclusion 3)	MET

---

Parameter apparent KD of K4 kissing-loop reporter: see the listing below.
Test system: K4 kissing-loop RNA reporter;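 also: bound reporter read as fluorescence of individual clusters on recovered sequencing chips by microscopy, with normalized cluster intensities fitted with a binding model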
assay name: apparent KD of K4 kissing-loop reporter; higher = weaker reporter binding
recorded conditions: Eterna round: R107; input ligand: theophylline 20 uM

sequence content	apparent KD of K4 kissing-loop reporter, nM
UCACAAGUUAACUAGUGAUGUUAGUUAGUACGAGGACCGGUACGGCCGCCACUCGAAAAGUGGUUUUACGGACUUUUGGGCAGGC [theeternabot_sameState_KL_Trp_A_17]	223
CGGAUGUAGUGAUGUUAUAUAAGAAGUAGACGAGGACCGGUACGGCCGCCACUCGAAACGGCUACUAGCGCGUUGCGAGGUGUGC [ExTryptoA.Ch]	688
AGACUACUGACAGGAUAUAACAUAUUAGCUCGUAUACCAAAGGUAUACGAGCACCUUCUAGUGAUGUUAGAAGGGUCGGUAGUCA [Omei KL FMN B Exc B v1]	96.2
AAUAACUAGUAUAUUUUUAAUAAUACAGAUACCAGUGAUAAUAGACACCCUUGGCAGCUGAUCGAGUGAUGUUCGUUUAUUUUAA [#11 K4 Theophylline A Same State]	129
CGAUUUGCUUCAGCCUUAGUGAUGUUAAGGCGAGGACCGGUACGGCCGCCACUCGUAGGUUAUGUGCACGGCGGCGCUAAGGGCC [theeternabot_exclusion_KL_Trp_A_36]	120
UAACUGCAGUGAUGUUGCAGAUGUCCUGACUAGGAUAUCAGGAAACUGAGAAGGAGUCCCUUCUAAACAUCACAGAAGGAGGACA [[K1]-[K2]-[F1]'-[F1]-[F2]-[F2]'-[K]'-[F]''_Design2]	508
GAGGGCCCUGUAGGAUAUGAGUCUAGUGAUGUUAGGCGGUCCAUGCGCGUGGCGCGUUAUGCCCUUUUAGAAGGACAGGGCUCUC [#2 Exclusion - FMN B Attempt #21 (HarryS)]	83.3
ACUAUCAUUACGCAUGGAGUGAUGUUUCAGCGAGGACCGGUACGGCCGCCACUCGUUACGUGGUUAGAGCCAAUGUUCGAGAAGC [theeternabot_exclusion_KL_Trp_A_39]	1270
GUGCGCGGUGCGGCCGCCACUCGCAUGAGAGUGAUGUUCUCGGGACGGACGGAAGUCCGUCAUGUGAGGACCGGGCAUGGCUGCG [#2 Same State - Tryptophan B Attempt #10 (HarryS)]	497
GUGCGCGCGGCGGCCGCCACUCGCAUGAGAGUGAUGUUCUCGGGACUGACGGAAGUCAGUCAUGGGAGGACCGGGCCGGGCUGCG [#2 Same State - Tryptophan B Attempt #13 (HarryS)]	1140
UGCGCUGCCUGAGGAUAUAGAAACGAGUGAUGUUCGUGGAUAAGAGCCAGUGAUGUUGGGUUAUUUCUAGAAGGCAGGCAAAGUA [Exclusion FMN B GF7]	93.4

---

Tested on: MS2 coat protein
assay name: apparent KD of MS2 coat protein; designed switch direction (-1 OFF switch, 1 ON switch): -1; higher = weaker reporter binding
recorded conditions: Eterna round: R95; input ligand: microRNA oligo, concentration not stated
endpoint: apparent KD of MS2 coat protein (µM)

sequence content	study system	endpoint result
GUCUCGUCAGGAUAUGACGCUACAUUUUCUUUUUAGAAGAGUCAGAAGGGACAUGAGGAUCACCCAUGUGAUUC [Ex4 - 3 - 3] (puzzle: Exclusion 4)	MS2 coat protein	0.31
AAGAAACAUGAGGAUCACCCAUGUGAGGAUAUGAAUAAGAAAAGAAAAGAAAGAAGAAUCAGAAGGCACAAAGG [salish99-ex1_r3_045] (puzzle: Exclusion 1)	MS2 coat protein	0.0405
CCGGAAAUACAGGAUAUAGGAGUCAAUAGACUCCUAGAAGGGUAUACAUGAGGAUCACCCAUGUGUCCUACCGG [Fiskers Ex 6 - 66] (puzzle: Exclusion 6)	MS2 coat protein	0.0251
CUUGUGUAAGGAUAUCGAGUAGAACGCUCGAGUUCUGAGCUCGAGAAGGUACAUGAGGAUCACCCAUGUUAAAA [Atusgete] (puzzle: Exclusion 4)	MS2 coat protein	0.0422
CUUUUGUGAGGAUAUCAGUAGUUAAUAAAUAAAAUUACUACUGAGAAGGCACAUGAGGAUCACCCAUGUUCCUC [salish99_ex3_r3_075] (puzzle: Exclusion 4)	MS2 coat protein	0.0394
UUUUACGAAGGAUAUACAUUUUUUUUAUUAUUUUCAUUAUUACAUGAGGAUCACCCAUGUAGAAGGUCGAUUUU [My Design] (puzzle: Exclusion 2)	MS2 coat protein	0.0277
UAUACACAUGAGGAUCACCCAUGUGAGGAUAUGUUAAUUUUAAUGAAAAUUAAAAUUAACAGAAGGCACAUAUA [JR_Exclusion1_Sub025] (puzzle: Exclusion 1)	MS2 coat protein	0.0672
AAGAACUUAGGAUAUACAUGAGGAUCACCCAUGUAGCUUCACUUGGGCCUGAGCCCGUGUAGAAGGAAGAAAAU [Arge] (puzzle: Exclusion 3)	MS2 coat protein	0.066
CCGCAAAUGCAGGAUAUCGUAUCGGAUACGAUACGAGAAGGGCGAACAUGAGGAUCACCCAUGUGUCCUAGCGG [Fiskers Ex 6 - 40] (puzzle: Exclusion 6)	MS2 coat protein	0.0403
ACAAGCUUUUUGUUCGUCUUAUAAAAUCCUAAGAGGAAAACAUGAGGAUCACCCAUGUAACAAAGACGGACUCAUGU [Sesor Array 12 - Jieux - Sensor v3, turn-off variant 2] (puzzle: Sensor v3, turn-off variant 2)	MS2 coat protein	0.125
AGAUGGCGAGGAUAUACAUGAGGAUCACCCAUGUGAAGAUAAAUAGUGAGGAAGAAAAGUAGAAGGCGCUGUCA [Mat - Exclusion 3 - Mod of Salish D27] (puzzle: Exclusion 3)	MS2 coat protein	0.0586

---

Tested on: MS2 coat protein
assay name: apparent KD of MS2 coat protein; designed switch direction (-1 OFF switch, 1 ON switch): 1; higher = weaker reporter binding
recorded conditions: input ligand: microRNA oligo, concentration not stated
Please enter T where apparent KD of MS2 coat protein is greater than or equal to 50 nM, and F where it is lower.

sequence content	category label
UGUUGUAUUACAGGAUAUCUAGUAUUUUUAUUUAGAGAAGGGUAUUCACAUGAGGAUCACCCAUGUAUAUACGAGGAAGUUGUG [JMF's solution 9] (Eterna round: R96, puzzle: Same State NG 1)	F
CCCGCGUUUCGCGCCUACAUGAGGAUCACCCAUGUUUGUAGGCAGGAUAUCGUCCGCUCUGCGGGCGAGAAGGGCUGUUGUGGU [salish99_SSNG3_R04_029] (Eterna round: R96, puzzle: Same State NG 3)	T
UAGUGCAUUAGAGGAUAUUCUUACGACACGAGUAAGACAUGAGGAUCUCCCAUGUUGUGGCAUGGGAAGAAGGCUGAUGUGCUA [Omei SS(NG)2 Bv8] (Eterna round: R96, puzzle: Same State NG 2)	F
GUUACAUGAGGAUCACCCAUGUAUGUGUGGGAGUAAGUGUCUUAGGAUAUCUAUCAUUUAAAUUAAGAGAAGGAAGAUUGUUGU [JMF's solution 12] (Eterna round: R96, puzzle: Same State NG 3)	T
GGAUGAUUGACAGGAUAUCAUUUGUAAAUUCGUUGAGAAGGGUCGAUUACUUACACGACGUGUUACAUGAGGAUCACCCAUGUU [SameState NG1 #4] (Eterna round: R96, puzzle: Same State NG 1)	T
UUGUUUUGUAAUUAACAUGAGGAUCACCCAUGUCUUGGCUCAGAGGAUAUACAUGUUUGUUUGUAGUAGAAGGCUGUUUGUUGU [JR_SSNG3_Sub095] (Eterna round: R96, puzzle: Same State NG 3)	T
UGAACCGUCACAGGAUAUCAUGCGAAAAUUGCGUGAGAAGGGUGGAUGUUGUGCUCAAAGUUAUACAUGAGGAUCACCCAUGUU [SameState NG1 #45] (Eterna round: R96, puzzle: Same State NG 1)	T
AGGAAACAUGAGGAUCACCCAUGUAAAAAAGUGGGAGGAUAUACUAGAAGAAACAAAAUAGUAGAAGGCCUAAAAA [75%, Ex sub1, 32] (Eterna round: R96, puzzle: Same State 1)	F
